# Experiment: Selectivity index, ratio of CC50 for human HepG2.2.15 cells to IC50 for HBV infected in human HepG2.2.15 cells assessed as inhibition of DNA replication
# Type: functional
Threshold rule: Ratio CC50/IC50 greater than or equal to 5 is TRUE; below that, FALSE.

Solved entries (count: 3):
                            chemical_string  assigned_class
0  C=C1CC[C@@H]2[C@](C)(COC(=O)c3ccccc3C(=O)O)[C@H](O)CC[C@@]2(C)[C@@H]1C/C=C1\C=COC1=O            TRUE
1  C=C1CC[C@@H]2[C@](C)(COC(=O)c3ccccc3)[C@H](O)CC[C@@]2(C)[C@@H]1C/C=C1\C=COC1=O           FALSE
2  C=C1CC[C@@H]2[C@](C)(COC(=O)c3ccco3)[C@H](OC(=O)c3ccco3)CC[C@@]2(C)[C@@H]1/C=C/C1=CCOC1=O           FALSE

Exercise: Answer whether Ratio CC50/IC50 of C=C1CC[C@@H]2[C@](C)(COC(=O)c3ccccc3C(=O)O)[C@H](OC(=O)c3ccccc3C(=O)O)CC[C@@]2(C)[C@@H]1/C=C/C1=CCOC1=O is greater than or equal to 5.
Solution: TRUE

Exercise: Try this molecule next: C=C1CC[C@@H]2[C@](C)(COC(=O)/C=C/c3cc(OC)c(OC)c(OC)c3)[C@H](O)CC[C@@]2(C)[C@@H]1C/C=C1\C=COC1=O
Solution: TRUE
